The origin of these recorded values is ChEMBL document CHEMBL1152012.

Target or system Human immunodeficiency virus type 1 protease (Human immunodeficiency virus 1): recorded pKi listed per item.
Scale explanation: pKi corresponds to minus log10 of a concentration expressed in moles per litre.

COMPOUND: O=C1N(Cc2cccc(Br)c2)C2CS(=O)(=O)[C@@H](CCCCCO)C2N1Cc1cccc(Br)c1 (stereo partly specified)
pKi: 5.16

COMPOUND: COC(=O)CCCC[C@@H]1SCC2C1N(Cc1cccc(Br)c1)C(=O)N2Cc1cccc(Br)c1 (stereo partly specified)
pKi: 6.24

COMPOUND: COC(=O)CCCC[C@H]1C2C(CS1(=O)=O)N(Cc1cccc(Br)c1)C(=O)N2Cc1cccc(Br)c1 (stereo partly specified)
pKi: 5.39

COMPOUND: CC(=O)c1cccc(COC(=O)CCCC[C@@H]2SCC3C2N(Cc2cccc(C(C)=O)c2)C(=O)N3Cc2cccc(C(C)=O)c2)c1 (stereo partly specified)
pKi: 5.47

COMPOUND: O=C(O)CCCC[C@@H]1SCC2C1N(Cc1cccc(Br)c1)C(=O)N2Cc1cccc(Br)c1 (stereo partly specified)
pKi: 5.66

State pKi (Human immunodeficiency virus type 1 protease (Human immunodeficiency virus 1)) of CC(O)c1cccc(CN2C(=O)N(Cc3cccc(C(C)O)c3)C3C2CS[C@H]3CCCCCO)c1 (stereo partly specified) .
5.72

State pKi (Human immunodeficiency virus type 1 protease (Human immunodeficiency virus 1)) of O=C1N(Cc2cccc(Br)c2)C2CS[C@@H](CCCCCO)C2N1Cc1cccc(Br)c1 (stereo partly specified) .
6.30

* * *

# TARGET_OR_SYSTEM: Human immunodeficiency virus type 1 protease (Human immunodeficiency virus 1)
OBSERVABLE: Ki (µM)
Give your result in µM as a bare value.

MOLECULE: C/C(=N\O)c1cccc(COC(=O)CCCC[C@@H]2SCC3C2N(Cc2cccc(/C(C)=N/O)c2)C(=O)N3Cc2cccc(/C(C)=N/O)c2)c1 (some centres undefined)
ENDPOINT_RESULT: 2.7
//
MOLECULE: CC(=O)c1cccc(CN2C(=O)N(Cc3cccc(C(C)=O)c3)C3C2CS[C@H]3CCCCCO)c1 (some centres undefined)
ENDPOINT_RESULT: 3.7
//
MOLECULE: O=C1N(Cc2ccccc2)C2CS[C@@H](CCCCCO)C2N1Cc1ccccc1 (some centres undefined)
ENDPOINT_RESULT: 10.3

Next item in the queue.
State Ki (Human immunodeficiency virus type 1 protease (Human immunodeficiency virus 1)) of O=C(CCCC[C@@H]1SCC2C1N(Cc1cccc(Br)c1)C(=O)N2Cc1cccc(Br)c1)OCc1cccc(Br)c1 (some centres undefined) .
0.68
